Data origin, for the record: patent US20240182456A1

compounds and their reported Vd
assay: Pharmacokinetics in C57BL/6 mice (i.v. and oral); details: male, C57BL/6, mouse, whole blood, iv, 1 mg/kg
Form entry: value (L/kg) — number only.

{"entry smiles": "C[C@]1(c2ccc(Cl)cc2F)Oc2cccc(C3CCN(Cc4ncc(/C=C/C(=O)O)n4C[C@@H]4CCO4)CC3)c2O1", "result type": "Vd", "display unit": "L/kg", "quantitative result": 4.83}

Proceeding to the next compound to report its Vd.
The compound identified as Cc1nc(CN2CCC(c3cccc4c3O[C@@](C)(c3ccc(Cl)cc3F)O4)CC2)n(C[C@@H]2CCO2)c1/C=C/C(=O)O registered its Vd at 0.604
